B1: TMEM106C (parent)
chain: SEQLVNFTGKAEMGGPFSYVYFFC

Variants of: B1
Experiment: protein stability index of a GFP-peptide fusion (GPS, HEK-293T) (PSI 1-6); higher = more stable;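 note: lentivirally expressed fusions sorted by FACS into six bins by GFP to DsRed ratio, PSI derived from sequencing read proportions per bin multiplied by bin number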
Details: c terminus: a fixed tail appended
readoutType: protein stability index

• Q3C = 2.98
• G9R = 3.01
• G14L = 3
